Origin of the recorded values: patent US11104690B2

pIC50: −log10 of the molar value.
Notes on pIC50 obtained with Human DGAT2 (Homo sapiens (Human), UniProt Q96PD7).
Sequence (Q96PD7 whole entry): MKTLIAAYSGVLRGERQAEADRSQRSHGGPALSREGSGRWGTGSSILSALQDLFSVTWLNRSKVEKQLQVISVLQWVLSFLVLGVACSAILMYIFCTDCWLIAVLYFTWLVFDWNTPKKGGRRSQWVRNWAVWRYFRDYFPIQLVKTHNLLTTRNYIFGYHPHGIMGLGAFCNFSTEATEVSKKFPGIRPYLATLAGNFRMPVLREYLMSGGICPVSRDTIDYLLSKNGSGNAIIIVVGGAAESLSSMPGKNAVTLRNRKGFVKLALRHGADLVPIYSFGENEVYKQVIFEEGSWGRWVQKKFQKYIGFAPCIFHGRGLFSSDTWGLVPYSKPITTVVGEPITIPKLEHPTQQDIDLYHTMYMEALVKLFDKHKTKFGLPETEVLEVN
Assay readout: pIC50

Sample records with pIC50:
Compound	pIC50
Cc1nc(C(C)NC(=O)c2ccc3c(-c4ccccc4Cl)nn(-c4ccc(F)cc4)c3c2)no1 (racemic)	6.28
O=C(NC1CCS(=O)(=O)C1)c1ccc2c(-c3cccnc3)nn(-c3ccc(F)cc3)c2c1 (single isomer, unassigned)	6.67
CC(C)(C)[C@@H](CO)NC(=O)c1ccc2c(-c3ccccc3Cl)nn(-c3ccc(F)cc3)c2c1	8.21
CC1(NC(=O)c2ccc3c(-c4cccc(C5CC5)c4)nn(-c4ccc(F)cn4)c3c2)CCS(=O)(=O)C1 (single isomer, unassigned)	8.38
N#Cc1cccc(-c2nn(-c3ccc(F)cn3)c3cc(C(=O)N[C@H]4CCS(=O)(=O)C4)ccc23)c1	7.07

(a) N#CC1(NC(=O)c2ccc3c(-c4ccccc4Cl)nn(-c4ccc(F)cc4)c3c2)CC1
(b) CC(C)[C@@H](CO)NC(=O)c1ccc2c(-c3cccc(C4CC4)c3)nn(-c3ccc(F)cn3)c2c1
(c) O=C(c1ccc2c(-c3ccccc3Cl)nn(-c3ccc(F)cc3)c2c1)N1CC2CC1CS(=O)(=O)C2 (racemic)
(d) O=C(NCCS(=O)(=O)NC1CCCCC1)c1ccc2c(-c3ccccc3Cl)nn(-c3ccc(F)cc3)c2c1
(e) O=C(NCC1CCS(=O)(=O)C1)c1ccc2c(-c3ccccc3Cl)nn(-c3ccc(F)cc3)c2c1 (racemic)
Ask: Number of compounds to sort: 5. Sort criterion: pIC50, ascending. Note for the reader: the ranking is given by listing the labels in the order requested.
Reply: c, a, e, d, b

====

Biological target: Human DGAT2 (Homo sapiens (Human))
Experiment: DGAT2 Enzymatic Activity Assay (triolein formation, LC/MS/MS)
Assay type: biochemical
Settings: hDGAT2 Sf-9 membrane prep; 25 μM diolein, 10 μM oleoyl-CoA; room temperature
Assay readout: IC50 (nM)

(I) CC1(NC(=O)c2ccc3c(-c4ccccc4Cl)nn(-c4cccnc4)c3c2)CCS(=O)(=O)C1 (racemic)
(II) O=C(NC1CCC(O)C1)c1ccc2c(-c3ccccc3Cl)nn(-c3ccc(F)cc3)c2c1 (racemic)
(III) O=C(NCc1ccc(C(F)(F)F)nc1)c1ccc2c(-c3ccccc3Cl)nn(-c3ccc(F)cc3)c2c1
Ask: Hey, quick one: sort these by IC50, largest value first please. Note for the reader: the ranking is given by listing the labels in the order requested.
Reply: I, II, III
(I: 409 nM, II: 276 nM, III: 64 nM)

(I) N[C@H]1CS(=O)(=O)C[C@@H]1NC(=O)c1ccc2c(-c3ccccc3Cl)nn(-c3ccc(F)cc3)c2c1
(II) O=C(NCCS(=O)(=O)Nc1ccccn1)c1ccc2c(-c3ccccc3Cl)nn(-c3ccc(F)cc3)c2c1
(III) N#Cc1ccc(Cl)c(-c2nn(-c3ccc(F)cc3)c3cc(C(=O)NC4(CO)CCC4)ccc23)c1
Ask: # rank_down: sort by IC50, max first Note for the reader: the ranking is given by listing the labels in the order requested.
Reply: I, II, III
(I: 554 nM, II: 383 nM, III: 5.5 nM)

(A) COc1cc(-c2nn(-c3ccc(F)cc3)c3cc(C(=O)NC4(C)CCS(=O)(=O)C4)ccc23)ccn1 (single isomer, unassigned)
(B) O=C(NCc1ccncc1)c1ccc2c(-c3ccccc3Cl)nn(-c3ccc(F)cc3)c2c1
Ask: Compare reported IC50 values for A and B . Which is lower? // output: label of the selected item
Reply: A
